Where these numbers come from: ChEMBL document CHEMBL4689842

- System: U2OS
- assay: Incucyte cell viability with U2OS; further: filed as whole numbers so only -1 and 0 and 1 occur
- Assay type: toxicity, cell-based
- conditionInfo: human, 0 h, 10 µM, compound concentration 10 uM, replicate number 1, timepoint 0 hours
experimentalEndpoint: Growth Rate
Number only, no unit.

Q: Check the records and state Growth Rate for CCCOc1ccc([C@@H]2[C@@H](C(=O)O)[C@H](c3ccc4c(c3)OCO4)CN2CC(=O)Nc2c(CC)cccc2CC)cc1 [A-1806262]
Ans: 0

Q: Specify reported Growth Rate for the molecule shown: "O=C(O)COc1cccc(CN(Cc2ccc(-n3cccn3)cc2)S(=O)(=O)c2cccnc2)c1"
Ans: 0

Q: # return recorded Growth Rate for entry C[C@@H]1CN(c2cc(-c3nn(C)c4ccc(OC5(C)CC5)cc34)ncn2)C[C@H](C)O1 [MLi-2-NC]
Ans: 1

Q: Name the recorded Growth Rate of the molecule listed here: "CC(=O)c1cc(-c2cc(C(=O)NC3CC3)ccc2C)c2ncccn12"
Ans: 0

Q: Return value of Growth Rate for input "Clc1cc2c(NC3CCCC3)nnc(-c3ccncc3)c2cc1Cl" , no commentary.
Ans: 1

Q: Give the reported Growth Rate for this molecule. CC1(C)CNc2cc(NC(=O)c3cccnc3NCc3ccncc3)ccc21.O=P(O)(O)O.O=P(O)(O)O [MOTESANIB DIPHOSPHATE]
Ans: 0

Q: Read the entry NS(=O)(=O)c1cc(NC(=O)C2(c3ccccc3Cl)CC2)ccc1Oc1cccc(Cl)c1 [BAY-207] and write its reported Growth Rate.
Ans: 0

Q: For the molecule "COc1ccc(/C=C/CCCCOc2ccc(C(=O)c3cccc(C(=O)O)c3)cc2CCC(=O)O)cc1" , give its reported Growth Rate.
Ans: 0
